target-desc: Mitogen-activated protein kinase kinase kinase 9 (Homo sapiens, UniProt P80192)
Sequence (P80192 whole entry, the tested form may be a part): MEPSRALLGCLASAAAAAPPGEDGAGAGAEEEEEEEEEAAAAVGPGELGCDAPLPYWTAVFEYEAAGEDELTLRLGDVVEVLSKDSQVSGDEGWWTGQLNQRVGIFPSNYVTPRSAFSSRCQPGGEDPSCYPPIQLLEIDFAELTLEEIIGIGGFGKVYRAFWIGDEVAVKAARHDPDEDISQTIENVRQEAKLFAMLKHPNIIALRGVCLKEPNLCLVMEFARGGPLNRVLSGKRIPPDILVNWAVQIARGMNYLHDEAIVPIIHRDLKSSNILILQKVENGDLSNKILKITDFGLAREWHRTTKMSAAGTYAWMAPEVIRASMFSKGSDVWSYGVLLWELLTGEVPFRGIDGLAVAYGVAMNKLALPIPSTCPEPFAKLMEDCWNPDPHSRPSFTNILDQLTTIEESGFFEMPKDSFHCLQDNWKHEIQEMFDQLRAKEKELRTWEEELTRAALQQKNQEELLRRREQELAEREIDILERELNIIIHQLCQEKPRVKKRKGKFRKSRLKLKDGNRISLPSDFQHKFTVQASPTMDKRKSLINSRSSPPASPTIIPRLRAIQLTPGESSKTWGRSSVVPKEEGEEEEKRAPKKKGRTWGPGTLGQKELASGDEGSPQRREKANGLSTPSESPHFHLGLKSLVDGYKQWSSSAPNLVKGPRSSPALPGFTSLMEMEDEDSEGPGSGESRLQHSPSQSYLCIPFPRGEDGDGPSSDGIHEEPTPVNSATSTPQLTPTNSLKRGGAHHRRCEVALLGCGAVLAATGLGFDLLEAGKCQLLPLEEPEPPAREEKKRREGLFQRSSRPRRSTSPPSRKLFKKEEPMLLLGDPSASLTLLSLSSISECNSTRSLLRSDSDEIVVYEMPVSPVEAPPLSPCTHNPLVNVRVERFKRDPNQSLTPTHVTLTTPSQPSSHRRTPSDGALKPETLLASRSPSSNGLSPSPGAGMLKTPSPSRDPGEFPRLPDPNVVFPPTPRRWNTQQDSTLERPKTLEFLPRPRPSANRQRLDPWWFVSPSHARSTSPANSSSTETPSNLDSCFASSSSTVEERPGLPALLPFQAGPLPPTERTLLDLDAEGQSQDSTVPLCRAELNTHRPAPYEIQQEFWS
test-method-notes: Inhibition of GST-fused human MLK1
pIC50: −log10 of the molar value.
Use Yes when the recorded pIC50 is no lower than 7; use No when it is lower.

>>> class("COc1ccc2c(c1)CCc1c-2c2c(c3c1[nH]c1ccccc13)CNC2=O")
"No"
>>> class("O=C1NCc2c1c1c(c3c2c2ccccc2n3CCO)CCc2cc(OC3CCCC3)ccc2-1")
"Yes"

In: # check: pIC50 of `CC(C)Oc1ccc2c(c1)CCc1c-2c2c(c3c4ccccc4n(CCO)c13)CNC2=O` is greater than or equal to 7
Out: Yes
